Target: Ribosomal protein S6 kinase alpha-6 (Homo sapiens) (UniProt Q9UK32)
Sequence (Q9UK32 whole entry): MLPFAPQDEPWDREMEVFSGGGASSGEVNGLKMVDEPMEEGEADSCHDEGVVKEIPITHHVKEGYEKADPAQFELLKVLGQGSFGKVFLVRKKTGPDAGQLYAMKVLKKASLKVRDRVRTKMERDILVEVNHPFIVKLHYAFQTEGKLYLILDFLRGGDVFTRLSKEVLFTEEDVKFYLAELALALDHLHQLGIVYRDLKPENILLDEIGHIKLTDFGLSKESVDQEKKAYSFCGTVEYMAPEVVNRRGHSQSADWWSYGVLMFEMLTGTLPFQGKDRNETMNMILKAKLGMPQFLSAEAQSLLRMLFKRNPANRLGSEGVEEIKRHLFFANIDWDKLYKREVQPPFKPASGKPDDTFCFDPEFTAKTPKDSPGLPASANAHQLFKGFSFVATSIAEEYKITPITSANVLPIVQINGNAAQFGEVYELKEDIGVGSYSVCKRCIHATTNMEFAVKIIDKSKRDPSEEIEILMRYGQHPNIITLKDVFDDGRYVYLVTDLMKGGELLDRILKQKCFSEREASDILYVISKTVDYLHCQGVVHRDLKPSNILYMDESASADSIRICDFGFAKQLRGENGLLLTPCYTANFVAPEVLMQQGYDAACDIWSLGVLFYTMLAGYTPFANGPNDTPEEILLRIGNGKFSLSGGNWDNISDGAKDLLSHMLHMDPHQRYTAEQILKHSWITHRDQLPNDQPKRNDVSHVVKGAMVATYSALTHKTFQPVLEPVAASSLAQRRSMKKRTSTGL
Conditions: at 10 µM
measurement_label: residual activity

> print(dat)
                            chemical.string  recorded.value
1    N#Cc1c(NC(=O)c2cccc3ccccc23)sc2c1CCCC2             90%
2  CCOC(=O)c1c(C)[nH]c(/C=C2\C(=O)Nc3ccccc32)c1C             90%
3     O=c1cc(N2CCNCC2)oc2c(-c3ccccc3)cccc12             89%

* * *

Molecular target: Proto-oncogene tyrosine-protein kinase ROS (Homo sapiens)
Settings: at 10 µM
measurement_label: residual activity (%)

> print(dat)
                            chemical.string                           subject.of.test  recorded.value
1  O=C1C(Cl)=C(N2C(=O)CCC2=O)C(=O)c2ccccc21  Proto-oncogene tyrosine-protein kinase ROS (Homo sapiens)              97
2  CC(C)c1nn(-c2c(Cl)cccc2Cl)c2nc(Cc3ccc(OCCO)cc3)[nH]c(=O)c12  Proto-oncogene tyrosine-protein kinase ROS (Homo sapiens)              88
3  c1ccc(-c2cnc(Nc3ccc(OCCN4CCCC4)cc3)s2)cc1  Proto-oncogene tyrosine-protein kinase ROS (Homo sapiens)              80
4  Nc1ncnc2c1c(-c1ccc(Oc3ccccc3)cc1)cn2C1CCCC1  Proto-oncogene tyrosine-protein kinase ROS (Homo sapiens)              82
5  COc1cc2nccc(Oc3ccc(NC(=S)NC(=O)c4ccccc4C)cc3)c2cc1OC  Proto-oncogene tyrosine-protein kinase ROS (Homo sapiens)              52
6    N#Cc1c(NC(=O)c2cccc3ccccc23)sc2c1CCCC2  Proto-oncogene tyrosine-protein kinase ROS (Homo sapiens)              96
7          O=c1cc(N2CCOCC2)oc2c1ccc1ccccc12  Proto-oncogene tyrosine-protein kinase ROS (Homo sapiens)              99

* * *

The molecules listed here are annotated with their residual activity.
Biological target: Ribosomal protein S6 kinase alpha-3 (Homo sapiens)
Settings: at 10 µM
measurement_label: residual activity (%)

> print(dat)
                            chemical.string  measurement.label  measurement.unit  recorded.value
1         O=C(O)/C=C/c1cc(Br)c(Br)c(Br)c1Br  residual activity                 %              43
2   O=C1Nc2ccccc2/C1=C\c1c(Cl)[nH]c2ccccc12  residual activity                 %              25
3                   Nc1n[nH]c2nc3ccccc3nc12  residual activity                 %              54
4       Fc1ccc(-c2nc3n(c2-c2ccncc2)CCS3)cc1  residual activity                 %              52
5           Nc1ncnc2[nH]nc(Nc3ccc(F)cc3)c12  residual activity                 %              24
6  O=C(CCCc1ccc(-c2ccccc2F)cc1)Nc1ccc(O)cc1  residual activity                 %             129

* * *

Molecular target: MAP kinase-activated protein kinase 5 (Homo sapiens)
Conditions: at 10 µM
measurement_label: residual activity (%)

> print(dat)
                            chemical.string  measurement.label  measurement.unit  recorded.value
1  COc1cc2nccc(Oc3ccc(NC(=O)Nc4cc(C)on4)c(Cl)c3)c2cc1OC  residual activity                 %              70
2  O=C1NC(=O)C(c2c[nH]c3ccccc23)=C1c1c[nH]c2ccccc12  residual activity                 %              48
3  Nc1nc(Nc2ccc(S(N)(=O)=O)cc2)nn1C(=O)c1c(F)cccc1F  residual activity                 %              70

* * *

Biological target: MAP kinase-activated protein kinase 2 (Homo sapiens)
Conditions: at 1 µM
measurement_label: residual activity (%)

> print(dat)
                            chemical.string  recorded.value
1  CC(C)(C)c1nc2c3ccc(F)cc3c3c(=O)[nH]ccc3c2[nH]1              79
2  CN(C)S(=O)(=O)c1ccc2c(c1)/C(=C/c1cc3c([nH]1)CCCC3)C(=O)N2              81
3  CC(C)c1nn(-c2c(Cl)cccc2Cl)c2nc(Cc3ccc(OCCO)cc3)[nH]c(=O)c12              80

* * *

Molecular target: Casein kinase II (Homo sapiens) (UniProt P67870+P68400+P19784)
Sequence (P19784 whole entry, looked up): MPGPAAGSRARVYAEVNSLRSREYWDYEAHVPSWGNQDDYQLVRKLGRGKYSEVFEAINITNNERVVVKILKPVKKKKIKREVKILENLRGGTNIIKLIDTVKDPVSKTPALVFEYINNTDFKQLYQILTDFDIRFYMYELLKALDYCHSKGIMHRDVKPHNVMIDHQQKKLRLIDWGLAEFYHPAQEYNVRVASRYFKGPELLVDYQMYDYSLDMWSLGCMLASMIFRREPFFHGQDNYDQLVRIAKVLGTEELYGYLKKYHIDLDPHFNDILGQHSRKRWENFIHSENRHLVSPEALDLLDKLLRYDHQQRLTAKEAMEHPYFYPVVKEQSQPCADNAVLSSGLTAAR
Sequence (P67870 whole entry, looked up): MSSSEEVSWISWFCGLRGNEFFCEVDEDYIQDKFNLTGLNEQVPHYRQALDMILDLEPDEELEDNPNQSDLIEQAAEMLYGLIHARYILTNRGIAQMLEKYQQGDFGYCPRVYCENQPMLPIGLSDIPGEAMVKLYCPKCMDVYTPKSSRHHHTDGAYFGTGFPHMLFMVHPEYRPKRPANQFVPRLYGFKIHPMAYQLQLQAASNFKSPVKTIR
Sequence (P68400 whole entry, looked up): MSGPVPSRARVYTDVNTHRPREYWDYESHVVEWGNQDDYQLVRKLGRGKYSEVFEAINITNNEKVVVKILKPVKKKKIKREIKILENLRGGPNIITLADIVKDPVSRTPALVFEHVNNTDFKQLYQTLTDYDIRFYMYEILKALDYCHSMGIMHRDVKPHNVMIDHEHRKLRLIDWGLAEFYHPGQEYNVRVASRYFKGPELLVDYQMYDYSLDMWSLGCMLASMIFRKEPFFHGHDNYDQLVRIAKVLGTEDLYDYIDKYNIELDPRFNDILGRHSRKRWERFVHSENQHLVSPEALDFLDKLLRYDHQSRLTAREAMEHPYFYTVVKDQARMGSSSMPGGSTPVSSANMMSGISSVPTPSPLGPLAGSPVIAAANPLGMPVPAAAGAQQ
Conditions: at 10 µM
Description: Millipore: Percentage of residual kinase activity of CSNK2A1 at 10uM relative to control. Control inhibitor: Jnk Inhibitor II at 100.0uM. Buffer: 20 mM HEPES pH 7.6, 0.15 M NaCl, 0.1 mM EDTA, 5 mM DTT, 0.1% Triton X-100
# residual activity annotations
measurement_label: residual activity (%)

> print(dat)
                                   compound  recorded.value
1    O=C1Cc2c([nH]c3ccc(Br)cc23)-c2ccccc2N1              55
2  COc1cc2c(cc1OC)-c1n[nH]c(Nc3cccc(F)c3)c1C2             106
3        NC(=O)Nc1sc(-c2ccc(F)cc2)cc1C(N)=O              34
4  N#C/C(=C1/Nc2ccccc2S1)c1ccnc(NCCc2cccnc2)n1              15
5  Oc1cccc(-c2nc(N3CCOCC3)c3oc4ncccc4c3n2)c1             124
6  CCOC(=O)c1c(C)[nH]c(/C=C2\C(=O)Nc3ccccc32)c1C             118
7    O=C1NC(=O)c2c1c1c3ccccc3[nH]c1n1cncc21              21
8  CSc1nc(-c2ccc(F)cc2)c(-c2ccnc(NC(C)c3ccccc3)c2)[nH]1 (centres undefined)              99
9          O=C(c1ccccc1)c1ccc(N2CCOCC2)cc1O             113

* * *

Target: Serine/threonine-protein kinase BRSK1 (Homo sapiens) (UniProt Q8TDC3)
Sequence (Q8TDC3 whole entry): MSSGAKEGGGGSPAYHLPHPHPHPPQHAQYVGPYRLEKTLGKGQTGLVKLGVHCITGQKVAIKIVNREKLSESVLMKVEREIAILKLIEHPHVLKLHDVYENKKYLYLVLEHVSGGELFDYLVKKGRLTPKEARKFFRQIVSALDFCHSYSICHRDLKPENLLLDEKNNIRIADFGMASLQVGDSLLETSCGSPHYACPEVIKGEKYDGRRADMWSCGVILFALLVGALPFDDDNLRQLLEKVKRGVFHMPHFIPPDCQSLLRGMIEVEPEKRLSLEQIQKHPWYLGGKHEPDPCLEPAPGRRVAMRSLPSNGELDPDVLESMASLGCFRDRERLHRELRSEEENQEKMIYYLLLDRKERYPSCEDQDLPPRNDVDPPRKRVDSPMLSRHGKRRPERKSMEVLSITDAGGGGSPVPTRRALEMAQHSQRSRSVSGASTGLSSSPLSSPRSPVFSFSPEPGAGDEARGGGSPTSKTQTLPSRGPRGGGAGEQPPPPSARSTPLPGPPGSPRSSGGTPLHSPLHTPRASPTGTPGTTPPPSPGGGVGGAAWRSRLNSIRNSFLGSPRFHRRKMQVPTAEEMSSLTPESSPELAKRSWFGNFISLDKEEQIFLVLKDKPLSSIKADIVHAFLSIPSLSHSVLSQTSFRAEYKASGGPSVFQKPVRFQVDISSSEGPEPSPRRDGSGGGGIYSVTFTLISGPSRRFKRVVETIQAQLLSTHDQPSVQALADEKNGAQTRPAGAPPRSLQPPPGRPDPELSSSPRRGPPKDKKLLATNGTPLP
Conditions: at 10 µM
residual activity values by entry
measurement_label: residual activity

> print(dat)
                                   compound  recorded.value
1  O=C1NC(=O)C(c2cn(CCCn3ccnc3)c3ccccc23)=C1Nc1ccccc1             75%
2  CC(C)c1nn(-c2c(Cl)cccc2Cl)c2nc(Cc3ccc(OCCO)cc3)[nH]c(=O)c12             78%
3  COc1cc2nccc(Oc3ccc(NC(=O)Nc4cc(C)on4)c(Cl)c3)c2cc1OC             46%
4  CN([C@@H](Cc1ccc(OS(=O)(=O)c2cccc3cnccc23)cc1)C(=O)N1CCN(c2ccccc2)CC1)S(=O)(=O)c1cccc2cnccc12             74%
5  CSc1nc(-c2ccc(F)cc2)c(-c2ccnc(NC(C)c3ccccc3)c2)[nH]1 (stereo not given)             55%

* * *

# key: entry, value: residual activity
Target: Serine/threonine-protein kinase Chk1 (Homo sapiens)
Conditions: at 1 µM
measurement_label: residual activity (%)

> print(dat)
                            chemical.string  recorded.value
1  NC(=O)c1cccc(-c2cc(Nc3ccc(OC(F)(F)F)cc3)ncn2)c1              99
2                 Cn1sc(=O)n(Cc2ccccc2)c1=O              88
3     O=c1cc(N2CCNCC2)oc2c(-c3ccccc3)cccc12              83
4        CCCCc1c(-c2ccc(O)cc2)[nH]c2nccnc12              91
5  CC(C)(C)c1nc2c3ccc(F)cc3c3c(=O)[nH]ccc3c2[nH]1              37
6  Nc1ncnc2c1c(-c1ccc(Oc3ccccc3)cc1)cn2C1CCCC1              83
7  CC(C)(C)n1nc(Cc2cccc3ccccc23)c2c(N)ncnc21              86

* * *

Biological target: cAMP-dependent protein kinase catalytic subunit PRKX (Homo sapiens)
Settings: at 10 µM
measurement_label: residual activity (%)

> print(dat)
                             chemical.string  measurement.unit  recorded.value
 1                   Nc1n[nH]c2nc3ccccc3nc12                 %              84
 2  COc1cc2c(cc1OC)-c1n[nH]c(Nc3cccc(F)c3)c1C2                 %             101
 3   O=C1Nc2ccccc2/C1=C\c1c(Cl)[nH]c2ccccc12                 %              79
 4      COc1ccc(-c2cnc3c(-c4ccsc4)cnn3c2)cc1                 %              93
 5  COc1cc2nccc(Oc3ccc(NC(=S)NC(=O)c4ccccc4C)cc3)c2cc1OC                 %              52
 6  CC(C)(C)n1nc(Cc2cccc3ccccc23)c2c(N)ncnc21                 %              75
 7         O=C(O)/C=C/c1cc(Br)c(Br)c(Br)c1Br                 %              76
 8  CN([C@@H](Cc1ccc(OS(=O)(=O)c2cccc3cnccc23)cc1)C(=O)N1CCN(c2ccccc2)CC1)S(=O)(=O)c1cccc2cnccc12                 %              62
 9     O=c1cc(N2CCNCC2)oc2c(-c3ccccc3)cccc12                 %              87
10  CCCC(=O)Oc1ccc2[nH]c(C(=O)c3cc4ccccc4[nH]3)cc2c1                 %              92
11  N#C/C(=C1/Nc2ccccc2S1)c1ccnc(NCCc2cccnc2)n1                 %              37
12           Nc1ncnc2[nH]nc(Nc3ccc(F)cc3)c12                 %              21
13  COc1ccc2c(c1)c(C1=C(c3c[nH]c4ccccc34)C(=O)NC1=O)cn2CCCN(C)C                 %              79
14  Oc1cccc(-c2nc(N3CCOCC3)c3oc4ncccc4c3n2)c1                 %              92
15                 Cn1sc(=O)n(Cc2ccccc2)c1=O                 %              87
16  COc1cc2nccc(Oc3ccc(NC(=O)Nc4cc(C)on4)c(Cl)c3)c2cc1OC                 %              59
